Examples of compounds with documented GI50 follow.
Test system: Hs-578T
Assay Summary: NCI tumour cell line growth inhibition, 48 h
Calls of active or inactive are those of the source. Rule as the data show it: active = GI50 up to about 1.1 µM and inactive = higher.

Study these solved cases before continuing.
C=CCc1cccc2cc(C(=O)Nc3ccccc3)c(=N)oc12 | 37.6 µM (inactive)
CC1(C)CCc2c(ccc(C(=O)/C=C/c3ccc(O)cc3)c2O)O1 | 14.1 µM (inactive)
CCOC(=O)c1sc(N/N=C2\NC(=O)/C(=C/c3ccc([N+](=O)[O-])cc3)S2)nc1C | 33.9 µM (inactive)
S=C(CSc1ccccc1)Nc1cccc2ccccc12 | 77.1 µM (inactive)

Okay, now this compound:
Item: O=C1CS(=O)(=O)C(c2cccc(Oc3ccccc3)c2)N1c1cccc(Cl)c1Cl (stereo not given) | GI50: 29.8 µM (inactive)

###

System: SF-295
Assay Summary: NCI tumour cell line growth inhibition, 48 h
Calls of active or inactive are those of the source. No stated cut-off is given here; in the data, active = GI50 up to about 1.1 µM and inactive = higher.
Return exactly one item of 1 (yes) (active), 0 (no) (inactive)

CCOC(=O)C(NCc1cccc(C(F)(F)F)c1)(NC(=O)c1ccccc1)C(F)(F)F (centres undefined) | 0 (no)
CO[C@@]1(c2ccccc2)O[C@H]2OCCC2[C@H]1c1ccc(Cl)cc1 (some centres undefined) | 0 (no)
N#Cc1c(C#N)c(-c2ccco2)n(-c2ccccc2)c1N | 0 (no)

Q: Which outcome was entered for the compound Oc1c(OCc2nnc(CCCCCCCCc3nnc(COc4ccc5ccccc5c4O)n3Nc3ccccc3)n2Nc2ccccc2)ccc2ccccc12 in this test?
Ans: 1 (yes)

Q: Which outcome was entered for the compound CCOC(=O)c1c(-c2ccccc2)oc(=O)c(Cc2cccc3cccnc23)c1-c1ccccc1 in this test?
Ans: 0 (no)

Q: Which outcome was entered for the compound CN(C)c1ccc(C2SCC(=O)N2NS(=O)(=O)c2cccc(C(=O)O)c2)cc1 (centres undefined) in this test?
Ans: 0 (no)

Q: Which outcome was entered for the compound COc1cc(CC(C)C(C)Cc2ccc(O)c(OC)c2)ccc1O (centres undefined) [DIHYDROGUAIARETIC ACID] in this test?
Ans: 0 (no)

Q: Which outcome was entered for the compound C[C@H](c1ccccc1)N1C(=O)[C@@H](OCc2ccccc2)[C@H]1[C@H](COC(=O)COCc1ccccc1)OCc1ccccc1 in this test?
Ans: 0 (no)

###

Examples of compounds with documented GI50 follow.
System: TK-10
Assay Summary: NCI tumour cell line growth inhibition, 48 h
The source made the active and inactive calls. Cut-off read from the data, not from the text of the source: active = GI50 up to about 1.1 µM and inactive = higher.

Study these solved cases before continuing.
CCOC(=O)COc1cccc2occc(=O)c12 | > 100 µM (inactive)
CC(=O)c1ccc2c(c1)CC1(C2)Cc2ccc3c(c2C1=O)CCC3 (stereo not given) | 24 µM (inactive)
CCOC(=O)Nc1ccc(S(=O)(=O)NCCCl)cc1.CCOC(=O)Nc1ccc(S(=O)(=O)NCCCl)cc1.O=C(O)c1ccc(/N=N/Cl)cc1O | > 100 µM (inactive)

Item: C/C(=C\COc1ccc2ccc(=O)oc2c1)C1=CC(=O)C(C)(C)O1 | GI50: 5.07 µM (inactive)

Item: O=[N+]([O-])c1ccc(OP(=O)(O)OCC2OC(CP(=O)(O)O)C(O)C2O)cc1 (stereo not given) | GI50: > 100 µM (inactive)

Item: CC(C)C12CCC3(CCC4C(C)(C(=O)O)CCCC4(C)C3C1)C(CN)C2 (stereo not given) | GI50: 37.7 µM (inactive)

Item: CC1=CC(=C(c2ccc(N)c(C)c2)c2ccc(N)c(C)c2)C=CC1=N | GI50: 15.5 µM (inactive)

Item: COc1ccc2c(-c3ccc(O)cc3)c(Oc3ccccc3)c(=O)oc2c1 | GI50: 3.74 µM (inactive)

Item: Cn1cnc(CCc2ccccc2)n1 | GI50: > 100 µM (inactive)

Item: COc1ccc(C(=O)C(CC2C(=O)NC(=O)NC2=O)c2ccc(OC)cc2)cc1 (stereo not given) | GI50: > 100 µM (inactive)

###

Test system: UO-31
Assay Summary: NCI tumour cell line growth inhibition, 48 h
Calls of active or inactive are those of the source. No stated cut-off is given here; in the data, active = GI50 up to about 1.1 µM and inactive = higher.
Examples of compounds with documented GI50 follow.

NC(CCCCNC(=O)CNC(=O)OCc1ccccc1)C(=O)NC(CCCCNC(=O)CNC(=O)OCc1ccccc1)C(=O)NC(CCCCNC(=O)CNC(=O)OCc1ccccc1)C(=O)NC(CCCCNC(=O)CNC(=O)OCc1ccccc1)C(=O)NC(CCCCNC(=O)CNC(=O)OCc1ccccc1)C(=O)NC(CCCCNC(=O)CNC(=O)OCc1ccccc1)C(=O)O (centres undefined) | > 75 µM (inactive)
C/C(=N\NS(=O)(=O)c1ccccc1)c1ccc[n+]([O-])n1 | > 100 µM (inactive)
O=C(Nc1ccccc1)c1cc(S(=O)(=O)Nc2n[nH]c(=O)n2-c2ccccc2)c(S)cc1Cl | > 100 µM (inactive)

Item: Cc1ccc([N+](=O)[O-])cc1NC(=O)C(=O)C(C(=O)c1ccccc1F)C1OC(=O)c2ccccc21 (centres undefined) | GI50: 49.1 µM (inactive)

Item: CCN(CC)CCCC(C)Nc1cc(-c2ccccc2)nc2cc(OC)ccc12 (centres undefined) | GI50: 2.54 µM (inactive)

Item: CC(=O)c1ccc2c(c1)CC1(C2)Cc2ccc3c(c2C1=O)CCC3 (centres undefined) | GI50: 28.4 µM (inactive)

Item: Cc1cc(N(CCC#N)CCC#N)ccc1/C=C\C(=O)Nc1ccccc1 | GI50: 33.5 µM (inactive)

Item: O=C(CC(=O)N1N=C(c2ccccc2)C(/N=N/c2ccc(S(=O)(=O)CCOS(=O)(=O)O)cc2)C1=O)Nc1ccc(Cl)cc1 (centres undefined) | GI50: 40.3 µM (inactive)

Item: Cc1ccc(S(=O)(=O)N2CCN(S(=O)(=O)c3ccc(C)cc3)Cc3ccccc3C2)cc1 | GI50: > 100 µM (inactive)

Item: COc1nc2[nH]ccc2c(=O)[nH]1 | GI50: > 100 µM (inactive)

Item: O=C(/C=C/c1ccc(O)c(O)c1)c1cc(O)cc(O)c1 | GI50: 10.6 µM (inactive)

Item: O=C(O)CCC(/N=C(\C(=N\C(CCC(=O)O)C(=O)O)c1ccccc1)c1ccccc1)C(=O)O (centres undefined) | GI50: > 100 µM (inactive)

Item: CC1(C)COC2C(N(Cc3ccccc3)Cc3ccccc3)C(=O)N21 (centres undefined) | GI50: 64.3 µM (inactive)

Item: CCC(C)(C)n1c(C)nc2c1C(=O)c1ccccc1C2=O | GI50: 25.7 µM (inactive)

Item: Nc1nc(Cl)cc(NCC2(CO)CC=CC2)n1 | GI50: > 100 µM (inactive)

Item: CCC12C=CCN3CCC4(c5cc(C(c6ccc(OC)cc6)C6Cc7ccccc7N6)c(OC)cc5N(C)C4C(O)(C(=O)OC)C1O)C32 (centres undefined) | GI50: 10.2 µM (inactive)

Item: OC(CC(O)(C(F)(F)F)C(F)(F)F)C(O)c1ccco1 (centres undefined) | GI50: > 10 µM (inactive)

Item: Nc1ncnc2c1ncn2[C@@H]1C[C@H](NO)[C@@H](O)[C@H]1O | GI50: 7.33 µM (inactive)

###

Examples of molecules with documented GI50 follow.
System: SNB-75
Assay Summary: NCI tumour cell line growth inhibition, 48 h
Active and inactive are the calls of the source. No stated cut-off is given here; in the data, active = GI50 up to about 1.1 µM and inactive = higher.

CCCC/N=C(/c1ccccc1)N1CCOCC1 | 1.25 µM (inactive)
CCCCCCCCCCCCCC(=O)CBr | 6.03 µM (inactive)
Cc1ccc([N+](=O)[O-])cc1S(=O)(=O)Nc1ccc(C2=NN(C(=O)c3ccccc3)C(c3ccccc3O)C2)cc1 (stereo unspecified) | 17.1 µM (inactive)
Cc1c2c(c(C)c3c[n+](C)ccc13)Oc1ccccc1O2 | 5.28 µM (inactive)

Item: CSc1nnc(COc2ccc(Cl)cc2)o1 | GI50: > 100 µM (inactive)

Item: O=C(O)CSc1nnc(-c2ccccc2O)[nH]1 | GI50: > 100 µM (inactive)

Item: CC(C)OC(=O)[C@@H]1OC(C)(C)O[C@H]1C(=O)OC(C)C | GI50: > 100 µM (inactive)

Item: CCc1oc2ccccc2c1C(=O)c1cc(Br)c(O)c(Br)c1 | GI50: 18.9 µM (inactive)

Item: CN(C)CCCNc1c2c(nc3ccc(Cl)cc13)CCCC2 | GI50: 15.7 µM (inactive)

Item: CC(C)(C)[Si](C)(C)OCc1cccc(OCCOc2cccc(CO[Si](C)(C)C(C)(C)C)c2[N+](=O)[O-])c1[N+](=O)[O-] | GI50: > 100 µM (inactive)

Item: N#Cc1c(C#N)c(-c2ccco2)n(-c2ccccc2)c1N | GI50: 26.5 µM (inactive)

###

System: A549
Assay Summary: NCI tumour cell line growth inhibition, 48 h
Activity calls are given as the source filed them. Cut-off read from the data, not from the text of the source: active = GI50 up to about 1.1 µM and inactive = higher.
Examples of compounds with documented GI50 follow.

Item: COc1cc(NCc2ccc3n2-c2ccccc2OC3)cc(OC)c1OC | GI50: 17.6 µM (inactive)

Item: O=C1CCCc2c1c1c(n2Cc2ccccc2)-c2ccccc2C1=O | GI50: 23 µM (inactive)

Item: N#Cc1c(C#N)c(-c2ccco2)n(-c2ccccc2)c1N | GI50: 59.2 µM (inactive)

Item: CC1(C)CC2C=C(C=O)C3(C=O)CC3(C)C2C1 (centres undefined) | GI50: 10.2 µM (inactive)

Item: CC1(C)CC(=O)c2c(nc3c(ccc4ccccc43)c2-c2ccc(NC(=O)CCCCC(=O)Nc3ccc(-c4c5c(nc6c4ccc4ccccc46)CC(C)(C)CC5=O)cc3)cc2)C1 | GI50: 53.7 µM (inactive)

Item: N#Cc1ccccc1NC(=O)c1ccccc1 | GI50: > 100 µM (inactive)
